Each entry below lists one item and its recorded T/C value.
- System: BDF1 mice, Adenocarcinoma 755 s.c., tumor weight T/C
- method_description: NCI In Vivo Anticancer Drug Screen. Data for tumor model Adenocarcinoma 755 (subcutaneous) in B6D2F1 (BDF1) mice
- experimental_context: endpoint: mean tumor weight; dose: 12.5 mg/kg/injection; schedule: Q01DX011 (ip); vehicle: carboxymethylcellulose (CMC); higher = larger tumour
- Protocol: The antitumor activity of compounds was measured in mice bearing transplantable tumors. Survival or tumor size were measured and the results are expressed as the measurement made in the treated group (T) divided by the measurement made in the vehicle treated control group (C). The tumor model used in this assay is Adenocarcinoma 755 (subcutaneous) in B6D2F1 (BDF1) mice

>  <smiles_notation>
CCSc1nc(Cl)cc(Sc2nc(N)nc3nc[nH]c23)n1

>  <target_of_assay>
BDF1 mice, Adenocarcinoma 755 s.c., tumor weight T/C

>  <T/C>
82 % of control

$$$$
>  <smiles_notation>
CC(C)CNS(=O)(=O)c1ncnc2nc[nH]c12

>  <target_of_assay>
BDF1 mice, Adenocarcinoma 755 s.c., tumor weight T/C

>  <T/C>
24 % of control

$$$$
>  <smiles_notation>
CSc1ncnc2c1ncn2CCCl

>  <target_of_assay>
BDF1 mice, Adenocarcinoma 755 s.c., tumor weight T/C

>  <T/C>
4 % of control

$$$$
>  <smiles_notation>
CCCCOC(=O)C1(N)CCCC1

>  <target_of_assay>
BDF1 mice, Adenocarcinoma 755 s.c., tumor weight T/C

>  <T/C>
66 % of control

$$$$

###

- Tested on: BDF1 mice, Adenocarcinoma 755 s.c., tumor weight T/C
- method_description: NCI In Vivo Anticancer Drug Screen. Data for tumor model Adenocarcinoma 755 (subcutaneous) in B6D2F1 (BDF1) mice
- experimental_context: endpoint: mean tumor weight; dose: 50.0 mg/kg/injection; schedule: Q01DX011 (ip); vehicle: methylcellulose (MC); higher = larger tumour
- Method: The antitumor activity of compounds was measured in mice bearing transplantable tumors. Survival or tumor size were measured and the results are expressed as the measurement made in the treated group (T) divided by the measurement made in the vehicle treated control group (C). The tumor model used in this assay is Adenocarcinoma 755 (subcutaneous) in B6D2F1 (BDF1) mice
assay_metric: T/C

>  <molecule>
CCCCn1cnc2c(SCc3ccccc3F)nc(N)nc21

>  <meas_value>
3 % of control

$$$$
>  <molecule>
CC(C)Cn1cnc2c(SCCCc3ccccc3)nc(N)nc21

>  <meas_value>
39 % of control

$$$$
>  <molecule>
CC(C)CSc1nc(N)nc2c1ncn2CC(C)C

>  <meas_value>
12 % of control

$$$$
>  <molecule>
Cc1ncc(CO)c(C)c1O

>  <meas_value>
75 % of control

$$$$
>  <molecule>
CNc1nc(N)nc(Nc2ccc(I)cc2)c1N=O

>  <meas_value>
31 % of control

$$$$
>  <molecule>
c1cncc(CSc2ncnc3nc[nH]c23)c1

>  <meas_value>
2 % of control

$$$$
>  <molecule>
CCC(C)C(N=C1N=CNC2=NC=NC12)C(=O)O (stereo unspecified)

>  <meas_value>
80 % of control

$$$$
>  <molecule>
Nc1ncnc2c1ncn2CCO

>  <meas_value>
76 % of control

$$$$
>  <molecule>
CN(C)/N=N/c1nc[nH]c1C(N)=O

>  <meas_value>
30 % of control

$$$$
>  <molecule>
CS(=O)(=O)OCCC(=O)NCNC(=O)CCOS(C)(=O)=O

>  <meas_value>
3 % of control

$$$$
>  <molecule>
O=C(C1C(c2ccccc2)N1Cc1ccccc1)C1C(c2ccccc2)N1Cc1ccccc1 (stereo unspecified)

>  <meas_value>
77 % of control

$$$$

###

- Tested on: BDF1 mice, Adenocarcinoma 755 s.c., tumor weight T/C
- method_description: NCI In Vivo Anticancer Drug Screen. Data for tumor model Adenocarcinoma 755 (subcutaneous) in B6D2F1 (BDF1) mice
- experimental_context: endpoint: mean tumor weight; dose: 30.0 mg/kg/injection; schedule: Q01DX011 (ip); vehicle: carboxymethylcellulose (CMC); higher = larger tumour
Each entry below lists one item and its recorded T/C value.

>  <compound>
CSc1nc(N)nc2c1n(C)c[n+]2C

>  <T/C>
97 % of control

$$$$
>  <compound>
CC(=O)OCC1OC(n2c(Br)nc3c(=O)[nH]c(N)nc32)C(OC(C)=O)C1OC(C)=O (stereo not drawn)

>  <T/C>
95 % of control

$$$$
>  <compound>
CC(=O)OCC1OC(n2cnc3c(Cl)nc(N)nc32)C(OC(C)=O)C1OC(C)=O (stereo not drawn)

>  <T/C>
114 % of control

$$$$

###

- System: BDF1 mice, Adenocarcinoma 755 s.c., tumor weight T/C
- method_description: NCI In Vivo Anticancer Drug Screen. Data for tumor model Adenocarcinoma 755 (subcutaneous) in B6D2F1 (BDF1) mice
- experimental_context: endpoint: mean tumor weight; dose: 25.0 mg/kg/injection; schedule: Q01DX011 (ip); vehicle: carboxymethylcellulose (CMC); higher = larger tumour
- Protocol: The antitumor activity of compounds was measured in mice bearing transplantable tumors. Survival or tumor size were measured and the results are expressed as the measurement made in the treated group (T) divided by the measurement made in the vehicle treated control group (C). The tumor model used in this assay is Adenocarcinoma 755 (subcutaneous) in B6D2F1 (BDF1) mice
Each entry below lists one item and its recorded T/C value.

>  <compound>
Clc1ncnc2c1ncn2C1CCCCC1

>  <T/C>
81 % of control

$$$$
>  <compound>
COC(=O)C1(N)CCCC1

>  <T/C>
35 % of control

$$$$
>  <compound>
CN(C)c1nc(N)nc(Nc2ccc(Br)cc2)c1N=O

>  <T/C>
51 % of control

$$$$
>  <compound>
CSc1ncnc2nc[nH]c12

>  <T/C>
1 % of control

$$$$
>  <compound>
CC(C)CN(C)/N=N/c1nc[nH]c1C(N)=O

>  <T/C>
40 % of control

$$$$
>  <compound>
CCN(CC)CCCC(C)Nc1c2ccc(Cl)cc2nc2ccc(OC)cc12 (stereo not drawn)

>  <T/C>
68 % of control

$$$$
>  <compound>
C#CCn1cnc2c(Cl)ncnc21

>  <T/C>
13 % of control

$$$$
>  <compound>
Cc1ccc2c(c1)Sc1ccc3ccccc3c1N2

>  <T/C>
27 % of control

$$$$
>  <compound>
Cc1cc(O)c(C(C)C)cc1S(=O)(=O)O (tested in a mixture with another compound)

>  <T/C>
78 % of control

$$$$
>  <compound>
NS(=O)(=O)c1nc(Cl)c2[nH]cnc2n1

>  <T/C>
116 % of control

$$$$
>  <compound>
ClCCn1cnc2c(SCc3ccccc3)ncnc21

>  <T/C>
1 % of control

$$$$
>  <compound>
CC(CNC(=O)CCOS(C)(=O)=O)CNC(=O)CCOS(C)(=O)=O

>  <T/C>
111 % of control

$$$$
>  <compound>
O=C([O][Hg][CH2]C1CC(O)CC([CH2][Hg][O]C(=O)c2ccccc2)O1)c1ccccc1 (stereo not drawn)

>  <T/C>
83 % of control

$$$$
